TARGET_OR_TEST_SYSTEM: FBW7^ARG+pCycE (Homo sapiens, UniProt Q969H0, R505L)
Construct: GST (TEV site and flexible linker) (N, cleaved yes); made in house; host or cells: SF9 insect cells (baculovirus)
Sequence (Q969H0 64-707 R505L): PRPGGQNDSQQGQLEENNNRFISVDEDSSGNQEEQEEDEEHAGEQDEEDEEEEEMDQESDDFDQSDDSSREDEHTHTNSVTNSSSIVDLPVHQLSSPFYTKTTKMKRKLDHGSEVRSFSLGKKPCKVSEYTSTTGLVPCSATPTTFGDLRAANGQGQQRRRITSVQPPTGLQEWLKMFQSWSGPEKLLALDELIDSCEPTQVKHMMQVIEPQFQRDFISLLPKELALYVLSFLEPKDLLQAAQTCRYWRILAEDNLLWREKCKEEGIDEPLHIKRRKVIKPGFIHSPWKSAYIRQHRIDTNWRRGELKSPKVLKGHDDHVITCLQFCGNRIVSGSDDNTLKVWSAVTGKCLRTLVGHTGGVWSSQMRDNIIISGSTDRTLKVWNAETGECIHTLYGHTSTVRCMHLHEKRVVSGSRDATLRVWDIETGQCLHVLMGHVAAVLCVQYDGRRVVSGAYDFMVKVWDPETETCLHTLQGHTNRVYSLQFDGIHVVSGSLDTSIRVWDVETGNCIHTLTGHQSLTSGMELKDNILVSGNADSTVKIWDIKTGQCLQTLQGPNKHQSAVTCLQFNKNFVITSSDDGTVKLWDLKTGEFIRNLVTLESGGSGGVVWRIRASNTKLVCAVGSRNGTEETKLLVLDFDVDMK
Sequence (P63208 2-163 partner): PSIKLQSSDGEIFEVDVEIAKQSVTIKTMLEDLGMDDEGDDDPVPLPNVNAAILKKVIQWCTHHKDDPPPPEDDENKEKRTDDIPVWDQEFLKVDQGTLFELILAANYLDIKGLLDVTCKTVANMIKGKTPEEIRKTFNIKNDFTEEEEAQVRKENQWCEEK
EXPERIMENT_SUMMARY: FBW7^ARG-cyclin E agonist ALPHAscreen (primary PRUN, confirmation CRUN1, dose-response DRUN)
Assay type: binding
CONDITION_SET: DRUN dose-response, raw curve fit; read-out: FBW7 ACT EC50 Curve Fit Raw, Molar
pEC50: −log10 of the molar value.
OBSERVABLE: pEC50

CCC(C)OC(=O)C1=C(C)NC2=C(C(=O)CC(c3ccccc3)C2)C1c1cccc2ccccc12 (stereo not drawn) :: 4.80

(P) CCSCCOC(=O)C1=C(C)NC2=C(C(=O)CCC2)C1c1ccc(Br)cc1 (stereo not drawn)
(Q) O=C(Nc1ccc2oc(-c3ccc4ccccc4c3)nc2c1)c1cccc(Cl)c1Cl
# argmax over pEC50 for candidates P and Q Give the label of your selection. Q

###

TARGET_OR_TEST_SYSTEM: FBW7^ARG+pCycE (Homo sapiens, UniProt Q969H0, R505L)
Construct: GST (TEV site and flexible linker) (N, cleaved yes); made in house; host or cells: SF9 insect cells (baculovirus)
EXPERIMENT_SUMMARY: FBW7^ARG-cyclin E agonist ALPHAscreen (primary PRUN, confirmation CRUN1, dose-response DRUN)
Assay type: binding
CONDITION_SET: primary screen, 1536-well, 26.1 μM, FBW7^ARG + pCycE degron peptide; high control wt-FBW7+pCycE; read-out: FBW7 ACT PRUN % Response
OBSERVABLE: activation at 26.1 µM (%)

Previously resolved entries follow.
CC1=C(C(=O)OCCc2ccccc2)C(c2ccc(Cl)cc2Cl)C2=C(CC(C)(C)CC2=O)N1 (centres unmarked) :: 2.09
CCC(c1nnnn1CCC(C)C)N1CCN(C(=O)c2ccco2)CC1 (centres unmarked) :: 2.16
O=C(NCc1ccc(C(=O)NCCc2ccccn2)cc1)Nc1ccc(-c2cn[nH]c2)cc1 :: 1.94
CC(C)c1ccc(Nc2nccn3c(-c4ccoc4)cnc23)cc1 :: 2.3
COc1ccc(OC)c(/C=C2/N=C(c3cccc([N+](=O)[O-])c3)OC2=O)c1 :: 1.88

(A) Cc1c(NC(=O)/C(=C\c2ccccc2)NC(=O)c2ccccc2)c(=O)n(-c2ccccc2)n1C
(B) O=C(NCCCN1CCc2ccccc2C1)Nc1ccc(Br)cc1
(C) O=C(c1ccco1)N1CCN(c2ncc(-c3ccccc3CO)n3ccnc23)CC1
Hello, I need these entries ordered by activation at 26.1 µM, highest reading first. Thanks! Show the ranking through the labels, in the order asked for. C, B, A
(C: 6.66%, B: 3.06%, A: 1.87%)

###

TARGET_OR_TEST_SYSTEM: FBW7^ARG+pCycE (Homo sapiens, UniProt Q969H0, R505L)
Construct: GST (TEV site and flexible linker) (N, cleaved yes); made in house; host or cells: SF9 insect cells (baculovirus)
EXPERIMENT_SUMMARY: FBW7^ARG-cyclin E agonist ALPHAscreen (primary PRUN, confirmation CRUN1, dose-response DRUN)
Type: binding
CONDITION_SET: DRUN dose-response, relative to WT-FBW7+pCycE; read-out: FBW7 ACT Averaged Max % Response
OBSERVABLE: Emax (%)

Completed entries (count: 5):
CCOC(=O)C1CCN(C(=O)Nc2ccc(NC(=O)C3CCN(C(=O)OCC)CC3)cc2)CC1 [SR-01000451467-1] :: 15.5
CC(C)c1ccc(Nc2nccn3c(-c4ccoc4)cnc23)cc1 [SR-01000376943-1] :: 6.99
CCC(C)OC(=O)C1=C(C)NC2=C(C(=O)CC(c3ccccc3)C2)C1c1cccc2ccccc12 (stereo not shown) [SR-01000423185-1] :: 13
COc1ccc(NC(=O)c2cc(S(=O)(=O)N3CCN(c4ccccn4)CC3)ccc2F)cc1 [SR-01000579121-1] :: 11.6
Cc1cccc(CC(=O)Nc2cnn(-c3cccc(C(=O)N4CCNC(=O)CC4)c3)c2)c1 [SR-01000188911-1] :: 23.6

(A) O=C(NCc1ccc(C(=O)NCCc2ccccn2)cc1)Nc1ccc(-c2cn[nH]c2)cc1 [SR-00000005517-1]
(B) CC1=C(C(=O)OCc2ccccc2)C(c2cn(-c3ccccc3)nc2-c2ccc(F)cc2)C(C(=O)OCc2ccccc2)=C(C)N1 [SR-01000425637-1]
Lab note: check whether A or B shows the higher recorded Emax. Answer by stating the label of the chosen item. A

(P) CSc1ccccc1C(=O)Nc1nc2nc(C)cc(C)c2s1 [SR-01000917298-1]
(Q) O=c1c2cnn(-c3ccccc3)c2nnn1Cc1cccnc1 [SR-01000355082-1]
Between P and Q , which one has the lower reported Emax value? // output: label of the selected item Q
(Q: 6.4%, P: 23.5%)

(1) CCc1ccc(N2CC(C(=O)NCC(C)(C)CNC(=O)C3CC(=O)N(c4ccc(CC)cc4)C3)CC2=O)cc1 (stereo not shown) [SR-01000537224-1]
(2) COc1ccc(OC)c(/C=C2/N=C(c3cccc([N+](=O)[O-])c3)OC2=O)c1 [SR-01000414795-1]
Which item exceeds the other in Emax, 1 or 2 ? Field: selected label. Fill in the label of the entry you choose. 1
(1: 16.5%, 2: 7.11%)

(P) COc1cccc(/C=N/c2cnn(C)c2C(N)=O)c1O [SR-01000314216-1]
(Q) CCN(CC)c1ccc2c(c1)OC(N)=C(C#N)C2c1ccccc1 (stereo not shown) [SR-01000320053-1]
Could you point out whether the larger Emax belongs to P or to Q ? To answer, give the label that identifies your chosen option. P

(I) CCC(C)OC(=O)C1=C(C)NC2=C(C(=O)CC(c3ccc(Cl)cc3)C2)C1c1cccc(Cl)c1 (stereo not shown) [SR-01000422821-1]
(II) O=C(c1ccco1)N1CCN(c2ncc(-c3ccccc3CO)n3ccnc23)CC1 [SR-01000381408-1]
For this pair, I and II , which shows a numerically higher Emax? Identify your selection by its label. II

###

TARGET_OR_TEST_SYSTEM: FBW7^ARG+pCycE (Homo sapiens, UniProt Q969H0, R505L)
Construct: GST (TEV site and flexible linker) (N, cleaved yes); made in house; host or cells: SF9 insect cells (baculovirus)
EXPERIMENT_SUMMARY: FBW7^ARG-cyclin E agonist ALPHAscreen (primary PRUN, confirmation CRUN1, dose-response DRUN)
Format: binding
CONDITION_SET: primary screen, 1536-well, 26.1 μM, FBW7^ARG + pCycE degron peptide; high control wt-FBW7+pCycE; read-out: FBW7 ACT PRUN % Response
OBSERVABLE: activation at 26.1 µM (%)

// below: answered molecules
COc1cccc(/C=N/c2cnn(C)c2C(N)=O)c1O :: 3.64
CCC(C)OC(=O)C1=C(C)NC2=C(C(=O)CC(c3ccccc3)C2)C1c1cccc2ccccc12 (centres unmarked) :: 2.18
COc1ccc(NC(=O)c2cc(S(=O)(=O)N3CCN(c4ccccn4)CC3)ccc2F)cc1 :: 1.87
O=c1c2cnn(-c3ccccc3)c2nnn1Cc1cccnc1 :: 1.95
COc1ccccc1-c1ccc(=O)n(CC(=O)Nc2ccc(C(=O)N3CCCC3)cc2)n1 :: 4.09
Cc1cc(OCC(=O)Nc2ccc3oc(-c4ccccc4Br)nc3c2)cc(C)c1Cl :: 2.01
CCCOC(=O)C1=C(C)N(CC)C(=O)NC1c1ccccc1[N+](=O)[O-] (centres unmarked) :: 2.55
Cc1cccc(N2CCN(C(=O)CCc3nc(C4=CCN(C)CC4)no3)CC2C)c1 (centres unmarked) :: 4.08
Cc1ccc2nc(SCC(=O)Nc3ncc(C)s3)c(C#N)cc2c1 :: 3.77
CCN(Cc1ccccc1)C(=O)c1cc2c(=O)n3cccc(C)c3nc2n1C :: 3.93

(I) Cc1nc(C(C)NC(=O)c2cc(COc3ccc(F)cc3F)on2)cs1 (centres unmarked)
(II) C/C(=N\Nc1cccc(C(F)(F)F)c1)C1CC1
(III) COc1cccc(C=O)c1OC(=O)c1cccc(Cl)c1
(IV) COc1ccccc1-c1ccc(N2CCN(C(=O)COc3ccccc3)CC2)nn1
List items by activation at 26.1 µM in falling order. Submit the labels in the order that the ranking request calls for. III, IV, II, I

(1) CCOC(=O)c1sc2ncn(CC(=O)NCCC3=CCCCC3)c(=O)c2c1C
(2) CCS(=O)(=O)NCC(c1cccs1)S(=O)(=O)c1ccc(C)cc1 (centres unmarked)
Consider entries 1 and 2 . Which has the numerically lower activation at 26.1 µM? Your answer should be the label of the entry you select. 1

###

TARGET_OR_TEST_SYSTEM: FBW7^ARG (RLFBW7) alone (Homo sapiens, UniProt Q969H0, R505L)
Construct: GST (TEV site and flexible linker) (N, cleaved yes); made in house; host or cells: SF9 insect cells (baculovirus)
Sequence (Q969H0 64-707 R505L): as the sequence (Q969H0 64-707 R505L) above
Sequence (P63208 2-163 partner): as the sequence (P63208 2-163 partner) above
EXPERIMENT_SUMMARY: Counterscreen 1 ALPHAscreen with FBW7^ARG alone (CSRUN1/DCSRUN1)
Assay type: binding
CONDITION_SET: dose-response counterscreen, raw curve fit, read-out: RLFBW7 ACT DCSRUN1 EC50 Curve Fit Raw
OBSERVABLE: EC50 (nM)

CN(C)CC[S+]([O-])c1cc(-c2cn[nH]c2)ccc1NC(=O)[C@@H]1Cc2cc(F)ccc2CN1.O=C(O)C(F)(F)F (stereo partly drawn) :: 92.5
COc1ccc(COC(=O)C2=C(C)NC3=C(C(=O)CC(C)(C)C3)C2c2ccccc2)cc1 (stereo not drawn) :: 5.6
CC(=O)Nc1ccc(NC(=O)Cn2cnc3c(cnn3C(C)(C)C)c2=O)cc1 :: 18.2
CCCOC(=O)C1=C(C)N(CC)C(=O)NC1c1ccccc1[N+](=O)[O-] (stereo not drawn) :: 2800
CCSc1nnc(C2CCN(CC(=O)Nc3cccc4ccccc34)CC2)n1C :: 47600

(I) C/C(=N\Nc1cccc(C(F)(F)F)c1)C1CC1
(II) Cc1cccc(CC(=O)Nc2cnn(-c3cccc(C(=O)N4CCNC(=O)CC4)c3)c2)c1
Which value of EC50 is numerically greater: that of I or that of II ? Answer by stating the label of the chosen item. I

(A) CCN(Cc1ccccc1)C(=O)c1cc2c(=O)n3cccc(C)c3nc2n1C
(B) O=C(Nc1ccc2oc(-c3ccc4ccccc4c3)nc2c1)c1cccc(Cl)c1Cl
I'm curious, which of these has a smaller EC50 number: A or B ? # reply format: chosen label B
